- measurement target: Progesterone receptor (Homo sapiens); also: assay procedure not described here
- Sequence (P06401 whole entry): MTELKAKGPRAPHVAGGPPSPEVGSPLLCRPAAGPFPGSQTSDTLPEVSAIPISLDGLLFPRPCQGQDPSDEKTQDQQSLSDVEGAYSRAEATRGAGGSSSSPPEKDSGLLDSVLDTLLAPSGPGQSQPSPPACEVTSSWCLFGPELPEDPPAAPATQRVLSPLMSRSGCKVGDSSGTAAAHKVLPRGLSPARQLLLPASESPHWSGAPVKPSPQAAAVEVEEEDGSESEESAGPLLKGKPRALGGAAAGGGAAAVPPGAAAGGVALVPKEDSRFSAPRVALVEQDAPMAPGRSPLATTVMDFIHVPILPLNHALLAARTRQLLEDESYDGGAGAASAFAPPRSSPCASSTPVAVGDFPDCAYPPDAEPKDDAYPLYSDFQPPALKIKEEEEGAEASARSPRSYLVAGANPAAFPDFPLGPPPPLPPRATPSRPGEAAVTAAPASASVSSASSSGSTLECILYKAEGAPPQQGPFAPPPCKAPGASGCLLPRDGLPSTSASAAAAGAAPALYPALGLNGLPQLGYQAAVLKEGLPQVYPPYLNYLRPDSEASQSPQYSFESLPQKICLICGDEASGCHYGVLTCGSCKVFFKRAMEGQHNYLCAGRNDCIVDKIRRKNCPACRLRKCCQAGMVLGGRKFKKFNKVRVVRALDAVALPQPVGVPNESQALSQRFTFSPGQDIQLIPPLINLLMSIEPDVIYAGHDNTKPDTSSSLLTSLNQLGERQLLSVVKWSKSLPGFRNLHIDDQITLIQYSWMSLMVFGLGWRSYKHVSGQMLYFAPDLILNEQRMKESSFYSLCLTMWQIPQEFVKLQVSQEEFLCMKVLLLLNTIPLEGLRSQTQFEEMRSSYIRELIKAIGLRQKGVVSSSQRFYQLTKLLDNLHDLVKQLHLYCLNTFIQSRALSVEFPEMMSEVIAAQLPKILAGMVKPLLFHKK
- Format: functional
Quick reference: AC50 of the listed items.

| molecule | AC50 |
| --- | --- |
| C[C@@H]1C[C@H]2[C@@H]3C[C@H](F)C4=CC(=O)C=C[C@]4(C)[C@@]3(F)[C@@H](O)C[C@]2(C)[C@H]1C(=O)CO [DIFLUCORTOLONE] | > 0.03 µM |
| O=C(O)CSCC(=O)NC1CCSC1=O (stereo not drawn) [ERDOSTEINE] | > 30 µM |
| CC(=O)OCC[N+](C)(C)C [ACETYLCHOLINE] | > 30 µM |
| Nc1nc(O)c2ncn(COC(CO)CO)c2n1 [GANCICLOVIR] | > 30 µM |
| CC(=O)Nc1c(I)c(C(=O)N[C@H]2C(O)O[C@H](CO)[C@@H](O)[C@@H]2O)c(I)c(N(C)C(C)=O)c1I (stereo partly drawn) [METRIZAMIDE] | > 10 µM |
| CCCCC1(CC)C(=O)NC(=O)NC1=O [BUTETHAL] | > 30 µM |
| Nc1nc2c(c(=O)[nH]1)N(C=O)C(CNc1ccc(C(=O)N[C@@H](CCC(=O)O)C(=O)O)cc1)CN2 (stereo partly drawn) [LEUCOVORIN] | > 30 µM |
| C=CC(N)CCC(=O)O (stereo not drawn) [VIGABATRIN] | > 10 µM |
| CS(=O)(=O)OCCCCOS(C)(=O)=O [BUSULFAN] | > 30 µM |
| CN(C)C(=O)Oc1cc(OC(=O)N(C)C)cc(C(O)CNC(C)(C)C)c1 (stereo not drawn) [BAMBUTEROL] | > 30 µM |
| O=C(O)c1cc(O)c2c3nc4ccccc4oc-3cc(=O)c2n1 [PIRENOXINE] | > 30 µM |
| C[C@H]1Oc2cc(cnc2N)-c2c(nn(C)c2C#N)CN(C)C(=O)c2ccc(F)cc21 [LORLATINIB] | > 30 µM |
| C=CC1=C(C(=O)O)N2C(=O)[C@@H](NC(=O)/C(=N\OCC(=O)O)c3csc(N)n3)[C@H]2SC1 [CEFIXIME] | > 30 µM |
| COC(=O)[C@H](c1ccccc1Cl)N1CCc2sccc2C1 [CLOPIDOGREL] | > 30 µM |
| CCOC(=O)NNc1ccc(N(CC)CC(C)O)nn1 (stereo not drawn) [CADRALAZINE] | > 30 µM |
| CN(C)c1cc(NC(=O)CNC(C)(C)C)c(O)c2c1C[C@H]1C[C@H]3[C@H](N(C)C)C(O)=C(C(N)=O)C(=O)[C@@]3(O)C(O)=C1C2=O [TIGECYCLINE] | > 30 µM |
| Nc1ccn([C@@H]2O[C@H](CO)[C@@H](O)C2(F)F)c(=O)n1 [GEMCITABINE] | > 30 µM |
| CCN(CC)CC(=O)Oc1ccc(NC(C)=O)cc1 [PROPACETAMOL] | > 30 µM |

----------
Record set of AC50 for target or system 5-hydroxytryptamine receptor 2C (Homo sapiens, UniProt P28335). Also: assay procedure not described here.

| molecule | AC50 |
| --- | --- |
| CCCC(C)(COC(N)=O)COC(=O)NC(C)C (centres undefined) [CARISOPRODOL] | > 30 µM |
| CC1(C)O[C@@H]2C[C@H]3[C@@H]4C[C@H](F)C5=CC(=O)C=C[C@]5(C)[C@H]4[C@@H](O)C[C@]3(C)[C@]2(C(=O)CO)O1 [FLUNISOLIDE] | > 30 µM |
| CCCN(CCc1cccs1)[C@H]1CCc2c(O)cccc2C1 [ROTIGOTINE] | > 30 µM |
| Nc1nc(F)nc2c1ncn2[C@@H]1O[C@H](COP(=O)(O)O)[C@@H](O)[C@@H]1O [FLUDARABINE PHOSPHATE] | > 30 µM |
| Nc1ccc(C(=O)O)c(O)c1 [AMINOSALICYLIC ACID] | > 30 µM |
| CNCC[C@H](Oc1cccc2ccccc12)c1cccs1 [DULOXETINE] | 13 µM |
| CC(/C=C1\SC(=S)N(CC(=O)O)C1=O)=C\c1ccccc1 | 6.4 µM |
| CC(=O)Oc1ccccc1C(=O)Nc1ncc([N+](=O)[O-])s1 [NITAZOXANIDE] | 0.45 µM |
| CCCCCCOC(=O)CCC(=O)CN [HEXAMINOLEVULINATE] | 24 µM |
| COc1ccc(Cc2nccc3cc(OC)c(OC)cc23)cc1OC [PAPAVERINE] | > 30 µM |
| O=C1CN2Cc3c(ccc(Cl)c3Cl)N=C2N1 [ANAGRELIDE] | > 30 µM |
| CCOC(=O)NNc1ccc(N(CC)CC(C)O)nn1 (centres undefined) [CADRALAZINE] | > 30 µM |
| CN1CCN(CCCN2c3ccccc3Sc3ccc(S(=O)(=O)N(C)C)cc32)CC1 [THIOPROPERAZINE] | 6.14 µM |
| O=C1CN=C(c2ccccc2)c2cc(Cl)ccc2N1 [NORDAZEPAM] | > 30 µM |
| CC(C)(C)NC[C@H](O)COc1nsnc1N1CCOCC1 [TIMOLOL] | > 30 µM |
| Cc1ccc(NC(=O)C2(c3ccc4c(c3)OC(F)(F)O4)CC2)nc1-c1cccc(C(=O)O)c1 [LUMACAFTOR] | > 30 µM |
| CCCN(CC)C(CC)C(=O)Nc1c(C)cccc1C (centres undefined) [ETIDOCAINE] | > 30 µM |
| CC[C@H]1OC(=O)[C@H](C)[C@@H](O[C@H]2C[C@@](C)(OC)[C@@H](O)[C@H](C)O2)[C@H](C)[C@@H](O[C@@H]2O[C@H](C)C[C@H](N(C)C)[C@H]2O)[C@](C)(O)C[C@@H](C)/C(=N\OCOCCOC)[C@H](C)[C@@H](O)[C@]1(C)O [ROXITHROMYCIN] | > 30 µM |
| C#C[C@]1(O)CC[C@H]2[C@@H]3CCc4cc(OC)ccc4[C@H]3CC[C@@]21C [MESTRANOL] | > 30 µM |
| NS(=O)(=O)c1cc(C2(O)NC(=O)c3ccccc32)ccc1Cl (centres undefined) [CHLORTHALIDONE] | > 30 µM |
| Cc1ccc2c(-c3ccccc3)nc(=O)n(C(C)C)c2c1 [PROQUAZONE] | > 30 µM |
| O=C(O)c1ccccc1OP(=O)(O)O [FOSFOSAL] | > 30 µM |
| [H]/N=C(/N)N[C@H]1[C@H](O)[C@@H](O)[C@H](O[C@@H]2O[C@@H](C)[C@](O)(C=O)[C@H]2O[C@@H]2O[C@@H](CO)[C@H](O)[C@@H](O)[C@@H]2NC)[C@@H](N/C(N)=N\[H])[C@@H]1O [STREPTOMYCIN] | > 30 µM |
| CCCOC(C(=O)OC1CCN(C)CC1)(c1ccccc1)c1ccccc1 [PROPIVERINE] | 9.9 µM |
| CC1(C)O[C@@H]2[C@@H](CO[C@@]3(COS(N)(=O)=O)OC(C)(C)O[C@@H]23)O1 [TOPIRAMATE] | > 30 µM |
| N=C(N)c1ccc2cc(OC(=O)c3ccc(N=C(N)N)cc3)ccc2c1 [NAFAMOSTAT] | > 30 µM |
| Nc1nc(O)c2ncn(COC(CO)CO)c2n1 [GANCICLOVIR] | > 30 µM |
| COc1ccnc(C[S+]([O-])c2nc3ccc(OC(F)F)cc3[nH]2)c1OC (centres undefined) [PANTOPRAZOLE] | > 30 µM |
| CN1C[C@H](C(=O)N[C@]2(C)O[C@@]3(O)[C@@H]4CCCN4C(=O)[C@H](Cc4ccccc4)N3C2=O)C[C@@H]2c3cccc4[nH]cc(c34)C[C@H]21 [DIHYDROERGOTAMINE] | 0.5 µM |
| CCCNC(C)C(=O)Nc1ccccc1C (centres undefined) [PRILOCAINE] | > 30 µM |
| COc1cc2c(Nc3ccc(Br)cc3F)ncnc2cc1OCC1CCN(C)CC1 [VANDETANIB] | > 30 µM |
| CCCCC1(CC)C(=O)NC(=O)NC1=O [BUTETHAL] | > 30 µM |
| N#Cc1ccccc1-c1cc(-c2ccccn2)cn(-c2ccccc2)c1=O | > 30 µM |
| O=C(Nc1c(Cl)cncc1Cl)c1ccc(OC(F)F)c(OCC2CC2)c1 [ROFLUMILAST] | > 30 µM |

Data provenance is ChEMBL document CHEMBL5291721.
